- System: HeLa-ACE2 cells
- measurement-parameters: read-out: 50.0; ASAP-0008327-001=ASAP-0008418-001; 1440 min
measured-metric: CC50

Enquiry: Could you share which CC50 value was measured for CC(C)[C@@H](Nc1ncnc2[nH]c(-c3cnn(C)c3C#N)cc12)c1ccc2c(n1)OCCO2 ?
Return: > 50 µM

* * *

- tested-system: 5-HT2A (h) (Homo sapiens, UniProt P28223)
- Construct: purchased Eurofins Cerep (SafetyScreen44), recognised from the panel format
- Sequence (P28223 whole entry): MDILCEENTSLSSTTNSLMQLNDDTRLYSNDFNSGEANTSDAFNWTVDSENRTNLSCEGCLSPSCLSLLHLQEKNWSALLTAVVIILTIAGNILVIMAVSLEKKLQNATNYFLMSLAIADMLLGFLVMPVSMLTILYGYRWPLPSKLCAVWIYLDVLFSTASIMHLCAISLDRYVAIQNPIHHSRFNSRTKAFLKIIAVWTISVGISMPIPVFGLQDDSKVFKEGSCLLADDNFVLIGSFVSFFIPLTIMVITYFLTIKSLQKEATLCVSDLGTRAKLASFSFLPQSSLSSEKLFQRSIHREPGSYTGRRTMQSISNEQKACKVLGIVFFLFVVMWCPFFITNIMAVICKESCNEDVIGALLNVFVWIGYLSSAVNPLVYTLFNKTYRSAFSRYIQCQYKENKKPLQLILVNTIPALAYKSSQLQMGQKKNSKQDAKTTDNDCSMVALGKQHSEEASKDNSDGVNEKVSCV
- assay-notes: In vitro CEREP profiling, 5-HT2A (h) (agonist radioligand)
- Assay type: binding
- measurement-parameters: test compound concentration 10 uM
- From the text: Supplement media-1.zip/Safety_Panel_Profile.csv, table | column: perc_inhibition
measured-metric: perc_inhibition (% inhibition of the binding of a ligand specific for each target) (%)
Field format: number, assumed %, no unit text.

Enquiry: Could you share which perc_inhibition (% inhibition of the binding of a ligand specific for each target) value was measured for CC(C)[C@H](Nc1ncnc2[nH]ccc12)c1ccc2c(c1)S(=O)(=O)CCC2 ?
Return: 12

Enquiry: Okay, and C[C@H](C(=O)O)[C@@H](NC(=O)c1ncnc2[nH]ccc12)c1ccc(Br)cc1 ?
Return: 1

Enquiry: Okay, and CC(C)[C@H](Nc1ncnc2[nH]c(-c3cnn(C)c3C#N)cc12)c1ccc2c(n1)OCCO2 ?
Return: 15

Enquiry: Okay, and COc1ccc([C@H](Cc2nnn[nH]2)NC(=O)c2ncnc3[nH]ccc23)cc1 ?
Return: -4

* * *

- Test system: MDR1
- assay-notes: Permeability Papp (AB) MDR1/MDCKII
- measurement-parameters: dog, MDCK-MDR1, with Cyclosporin A, papp_a_to_b_inhibitor_mean, MDR1-MDCKII, A to B, with inhibitor Cyclosporin A
measured-metric: Papp A→B

Enquiry: Could you share which Papp A→B value was measured for CC(C)C(Nc1ncnc2[nH]c(C(=O)NC3CCN(C)C3)cc12)c1ccc2c(c1)S(=O)(=O)CCC2 (stereo not shown) ?
Return: < 0.1 nm/s

* * *

- assay-notes: In vitro kinetic solubility
- measurement-parameters: In vitro kinetic solubility, ph 7.4
measured-metric: solubility_mean (µM)
Field format: number, assumed µM, no unit text.

Enquiry: Could you share which solubility_mean value was measured for CC(C)[C@@H](Nc1ncnc2[nH]c(-c3cnn(C)c3C#N)cc12)c1ccc2c(c1)S(=O)(=O)CCC2 (single isomer, unassigned) [ASAP-0011147] ?
Return: 26

Enquiry: Okay, and CC(C)[C@H](Nc1ncnc2[nH]c(-c3cnn(C)c3C#N)cc12)c1ccc2c(n1)NC(=O)CO2 (single isomer, unassigned) [ASAP-0011177] ?
Return: 28

Enquiry: Okay, and CC(C)[C@@H](Nc1ncnc2[nH]c(-c3cnn(CC(=O)N(C)C)c3)cc12)c1ccc2c(c1)OCCO2 [ASAP-0008485] ?
Return: 210

* * *

- System: MDR1
- assay-notes: Permeability Papp (AB) MDR1/MDCKII
- measurement-parameters: dog, MDCK-MDR1, with Verapamil, papp_b_to_a_inhibitor_mean, MDR1-MDCKII, B to A, with inhibitor Verapamil
measured-metric: Papp B→A (×10⁻⁶ cm/s)
Field format: number, assumed ×10⁻⁶ cm/s, no unit text.

Enquiry: Could you share which Papp B→A value was measured for Cc1nn(C)cc1-c1cc2c(NC(c3ccc4c(c3)S(=O)(=O)CCC4)C(C)C)ncnc2[nH]1 (stereo not shown) [ASAP-0011446] ?
Return: 4.7

* * *

- tested-system: CB2 (h) (Homo sapiens, UniProt P34972)
- Construct: purchased Eurofins Cerep (SafetyScreen44), recognised from the panel format
- Sequence (P34972 whole entry): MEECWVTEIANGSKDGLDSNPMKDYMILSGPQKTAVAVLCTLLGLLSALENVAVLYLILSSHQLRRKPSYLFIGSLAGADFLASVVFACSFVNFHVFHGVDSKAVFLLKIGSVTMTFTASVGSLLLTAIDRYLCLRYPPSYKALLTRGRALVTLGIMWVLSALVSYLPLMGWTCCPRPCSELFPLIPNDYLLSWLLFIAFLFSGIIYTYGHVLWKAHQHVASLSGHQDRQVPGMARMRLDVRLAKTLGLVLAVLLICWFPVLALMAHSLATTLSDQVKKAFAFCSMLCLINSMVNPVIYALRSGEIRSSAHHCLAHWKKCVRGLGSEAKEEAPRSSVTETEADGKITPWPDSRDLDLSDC
- assay-notes: In vitro CEREP profiling, CB2 (h) (agonist radioligand)
- Assay type: binding
- measurement-parameters: test compound 10 uM
measured-metric: perc_inhibition (% inhibition of the binding of a ligand specific for each target) (%)
Field format: number, assumed %, no unit text.

Enquiry: Could you share which perc_inhibition (% inhibition of the binding of a ligand specific for each target) value was measured for COc1ccc([C@H](Cc2nnn[nH]2)NC(=O)c2ncnc3[nH]ccc23)cc1 ?
Return: -11

Enquiry: Okay, and C[C@H](C(=O)O)[C@@H](NC(=O)c1ncnc2[nH]ccc12)c1ccc(Br)cc1 ?
Return: -5

Enquiry: Okay, and CC(C)[C@H](Nc1ncnc2[nH]ccc12)c1ccc2c(c1)S(=O)(=O)CCC2 ?
Return: -13

Enquiry: Okay, and CC(C)[C@H](Nc1ncnc2[nH]c(-c3cnn(C)c3C#N)cc12)c1ccc2c(n1)OCCO2 ?
Return: 44

* * *

Consider the following compounds; for each one, report its perc_remaining.
- assay-notes: Hepatic microsomal stability, HLM
- Assay type: in vitro ADME, human
- measurement-parameters: In vitro human liver microsomal stability
Field format: number, assumed %, no unit text.

Enquiry: Could you share which perc_remaining value was measured for CC(C)[C@H](Nc1ncnc2[nH]c(-c3cnn(C)c3C#N)cc12)c1ccc2c(c1)NC(=O)CO2 (single isomer, unassigned) [ASAP-0013256] ?
Return: 44.0

Enquiry: Okay, and CC(C)[C@@H](Nc1ncnc2[nH]c(-c3cnn(CC(N)=O)c3)cc12)c1ccc2c(c1)OCCO2 ?
Return: 20.0

Enquiry: Okay, and CC(C)[C@H](Nc1ncnc2[nH]c(-c3cnn(CC(N)=O)c3)cc12)c1ccc2c(c1)OCCO2 (single isomer, unassigned) [ASAP-0008450] ?
Return: 2.0

Enquiry: Okay, and CC(C)[C@H](Nc1ncnc2[nH]c(-c3cnn(CC(N)=O)c3)cc12)c1ccc2c(c1)S(=O)(=O)CCC2 (racemic) [ASAP-0008679] ?
Return: 15.0

Enquiry: Okay, and CC(C)(C)[C@H](Nc1ncnc2[nH]c(-c3cnn(CC(N)=O)c3)cc12)c1ccc2c(n1)OCCO2 (racemic) [ASAP-0008648] ?
Return: 55.0

Enquiry: Okay, and CNC(=O)Cn1cc(-c2cc3c(N[C@H](c4ccc5c(c4)S(=O)(=O)CCC5)C(C)C)ncnc3[nH]2)cn1 (single isomer, unassigned) ?
Return: 23.0

* * *

- assay-notes: Hepatic microsomal stability, HLM
- Type: in vitro ADME, human
- measurement-parameters: In vitro human liver microsomal stability
Record yes whenever clint is at 60 µL/min/mg or higher; record no when lower.

Enquiry: Please indicate if the recorded clint for CC(C)[C@H](Nc1ncnc2[nH]c(C(=O)N[C@H]3CCN(C)C3)cc12)c1ccc2c(c1)S(=O)(=O)CCC2 meets or exceeds 60 µL/min/mg.
Return: no

Enquiry: Okay, and CC(C)[C@H](CO)Nc1ncnc2[nH]ccc12 ?
Return: no

Enquiry: Okay, and CNC(=O)c1cccc(-c2cc3c(N[C@H](c4ccc5c(c4)S(=O)(=O)CCC5)C(C)C)ncnc3[nH]2)c1 (single isomer, unassigned) ?
Return: yes

Enquiry: Okay, and CC(C)[C@H](Nc1ncnc2[nH]c(-c3cnn(CC(N)=O)c3)cc12)c1ccc2c(c1)NC(=O)CO2 (racemic) ?
Return: no

Enquiry: Okay, and CC(C)[C@H](Nc1ncnc2[nH]c(-c3cnn(C)c3)cc12)c1ccc2c(c1)S(=O)(=O)CCC2 (single isomer, unassigned) ?
Return: yes

Enquiry: Okay, and CC(C)[C@H](Nc1ncnc2[nH]ccc12)c1ccc2c(c1)S(=O)(=O)CCC2 ?
Return: no

Enquiry: Okay, and CC(C)[C@@H](Nc1ncnc2[nH]c(-c3cnn(CCC(N)=O)c3)cc12)c1ccc2c(c1)OCCO2 ?
Return: yes

Enquiry: Okay, and CC(C)[C@@H](Nc1ncnc2[nH]c(-c3cnn(C)c3)cc12)c1ccc2c(c1)S(=O)(=O)NCC2 ?
Return: yes

Enquiry: Okay, and CC(C)[C@H](Nc1ncnc2[nH]cc(C(=O)NC3CC3)c12)c1ccc2c(c1)S(=O)(=O)CCC2 (single isomer, unassigned) [ASAP-0011247] ?
Return: no

Enquiry: Okay, and CC(C)[C@@H](Nc1ncnc2[nH]c(-c3cnn(C)c3C#N)cc12)c1ccc2c(c1)S(=O)(=O)CCC2 [ASAP-0008651] ?
Return: yes

Enquiry: Okay, and O=C(Nc1cccc2c(C(=O)N[C@H]3c4ccccc4C[C@H]3C(=O)O)c[nH]c12)NC1CC1 (racemic) ?
Return: no

Enquiry: Okay, and CC(C)[C@@H](Nc1ncnc2[nH]c(-c3cnn(CC(N)=O)c3)cc12)c1ccc2c(c1)OCCO2 ?
Return: yes

Enquiry: Okay, and O=C(Nc1ccccc1)Nc1ccc(C(=O)NC2c3cccc(O)c3CC2C(=O)O)cc1 (centres unmarked) ?
Return: no

* * *

- assay-notes: Permeability Papp (AB) MDR1/MDCKII
- measurement-parameters: In vitro MDR1-MDCKII permeability, recovery A to B, mean
measured-metric: perc_recovery_a_to_b_mean (%)
Field format: number, assumed %, no unit text.

Enquiry: Could you share which perc_recovery_a_to_b_mean value was measured for CNC(=O)Cn1cc(-c2cc3c(NC(c4ccc5c(c4)OCCO5)C(C)C)ncnc3[nH]2)cn1 (stereo not shown) ?
Return: 94.1

Enquiry: Okay, and CC(C)[C@H](Nc1ncnc2[nH]c(-c3cnn(CC(N)=O)c3)cc12)c1ccc2c(c1)NC(=O)CO2 (racemic) ?
Return: 98.0

Enquiry: Okay, and CC(C)[C@@H](Nc1ncnc2[nH]c(-c3cnn(CC(N)=O)c3)cc12)c1ccc2c(n1)OCCO2 ?
Return: 73.0

Enquiry: Okay, and CC(C)(C)[C@H](Nc1ncnc2[nH]c(-c3cnn(CC(N)=O)c3)cc12)c1ccc2c(n1)OCCO2 (racemic) ?
Return: 88.8

Enquiry: Okay, and O=C(Nc1cccc2c(C(=O)N[C@H]3c4ccccc4C[C@H]3C(=O)O)c[nH]c12)NC1CC1 (racemic) ?
Return: 81.0

Enquiry: Okay, and CC(C)(C)[C@@H](Nc1ncnc2[nH]c(-c3cnn(CC(N)=O)c3)cc12)c1ccc2c(n1)OCCO2 ?
Return: 75.9

Enquiry: Okay, and CC(C)[C@H](Nc1ncnc2[nH]c(-c3cnn(CC(N)=O)c3)cc12)c1ccc2c(c1)S(=O)(=O)CCC2 (racemic) [ASAP-0008679] ?
Return: 79.9
